The compounds listed here are annotated with their AUC(0-t).
experiment-summary: Rodent pharmacokinetic study
Assay type: in vivo, Male Wistar rats
settings: whole blood; Wistar male rat, per oral, 3 mg/kg, water, blood
result-type: AUC(0-t) (ng·h/mL)

O=C(C1CCOCC1)N1CCc2nc(OC3CCN(C4CCC4)CC3)sc2C1
701
O=C(C1CCC1)N1CCc2nc(OC3CCN(C4CCC4)CC3)sc2C1.O=C(O)C(O)C(O)C(=O)O
117
CCC(=O)N1CCc2nc(OC3CCN(C4CCC4)CC3)sc2C1.O=C(O)C(O)C(O)C(=O)O
524
O=C(CN1CCOCC1)N1CCc2nc(OC3CCN(C4CCC4)CC3)sc2C1.O=C(O)C(O)C(O)C(=O)O
417
CC(C)C(=O)N1CCc2nc(OC3CCN(C4CCC4)CC3)sc2C1.O=C(O)C(O)C(O)C(=O)O
206
O=C(C1CC1)N1CCc2nc(OC3CCN(C4CCC4)CC3)sc2C1.O=C(O)C(O)C(O)C(=O)O
407
